# experiment.summary: Half life in C57BL/6 mouse at 10 mg/kg, iv
# Assay type: ADME, organism-based
# condition.label: in vivo
measured.metric: half-life (min)
A number alone suffices; assume min.

Sample records with half-life:
O=C1COCCN1c1ccc(CO[C@@H]2COc3nc([N+](=O)[O-])cn3C2)cc1 | 28.8
O=C1COCCN1c1ccc(CO[C@@H]2COc3nc([N+](=O)[O-])cn3C2)cc1F | 16.8

Prompt: Report measured half-life; entry is O=[N+]([O-])c1cn2c(n1)OC[C@@H](OCc1ccc(N3CCOCC3)c(F)c1)C2
Response: 58.8

* * *

Measured MIC by item
# System: Mycobacterium tuberculosis
# experiment.summary: Antimicrobial activity against Mycobacterium tuberculosis H37Rv assessed as growth inhibition after 7 days by microbroth dilution method
# Assay type: functional
# condition.label: 168 h
A number alone suffices; assume µg/mL.

O=C1COCCN1c1ccc(CO[C@@H]2COc3nc([N+](=O)[O-])cn3C2)cc1 | 0.78
O=[N+]([O-])c1cn2c(n1)OC[C@@H](OCc1ccc(N3CCSCC3)cc1)C2 | 6.25
O=[N+]([O-])c1cn2c(n1)OC[C@@H](OCc1ccc(N3CCOCC3)cc1)C2 | 3.13

Prompt: Report measured MIC; entry is O=[N+]([O-])c1cn2c(n1)OC[C@@H](OCc1ccc(N3CCOCC3)nc1)C2
Response: 3.13
